All figures here come from patent US5807535A.

experiment: Biodistribution of compound No. 6 in mice (Table 6); assay type: in vivo, Balb/c mice; conditions: mouse, bone, 5 min, read-out: biodistribution bone
reported-property: tissue uptake at 5 min (%ID/g)
Note: unit %ID/g is implicit; provide only the numeric part.

Request the reported tissue uptake at 5 min associated with Cc1cc(C)c(O)c(NC(=O)CN(CCN(CC(=O)O)CC(=O)Nc2cc(C)cc(C)c2O)CC(=O)O)c1
1.39

----------
# biodistribution kidney values compiled below
assay: Biodistribution of 99mTc complexes in mice; type: in vivo, Balb/c mice; conditions: 30 min
Write it as a number; the unit % Injected dose goes unstated.

These recorded examples may help you get a feel for the data.
CC(C)(C)c1ccc(O)c(NC(=O)CN(CCN(CC(=O)O)CC(=O)Nc2cc(C(C)(C)C)ccc2O)CC(=O)O)c1 [Compound 4]; 3.67
O=C(O)CN(CCN(CC(=O)O)CC(=O)Nc1ccc(Cl)cc1O)CC(=O)Nc1ccc(Cl)cc1O [Compound 2]; 4
Cc1cc(C)c(O)c(NC(=O)CN(CCN(CC(=O)O)CC(=O)Nc2cc(C)cc(C)c2O)CC(=O)O)c1 [Compound 6]; 1.9
Nc1ccc(O)c(NC(=O)CN(CCN(CC(=O)O)CC(=O)Nc2cc(N)ccc2O)CC(=O)O)c1 [Compound 5]; 3.75

Endpoint output: biodistribution kidney of O=C(O)CN(CCN(CC(=O)O)CC(=O)Nc1ccccc1O)CC(=O)Nc1ccccc1O [Compound 1] . Value?
3.19
